// data source = patent US7473683B2

# System: self-complementary strands (5′-XCGCGCG)
# ASSAY: dangling end thermal denaturation studies (base stacking) with self-complementary strands
# Assay type: physicochemical
# STATED CONDITIONS: dangling residue X in 5′-XCGCGCG
VALUE TYPE: ΔH° (van't Hoff) (kcal/mol)
API: value field is a number in kcal/mol; no unit string.

Here are 3 compounds together with their reported answers.
>>> numeric_result("Cc1ccc(Br)cc1Br")
-62.0
>>> numeric_result("Cc1ccc(I)cc1I")
-55.7
>>> numeric_result("Cc1ccc(Cl)cc1Cl")
-52.7

Request body: readout ΔH° (van't Hoff), system self-complementary strands (5′-XCGCGCG), query Cc1c[nH]c(=O)[nH]c1=O [T, thymine, reference compound] . Return the value. -54.4

---

# Tested on: DNA Pol I (Klenow fragment, exo-)
# ASSAY: steady-state kinetics of single nucleotide insertions, incoming nucleotide analogues (dNTP/dXTP)
# Format: biochemical, E. coli
# STATED CONDITIONS: dNTP inserted opposite template base A; 37° C.
Threshold check on Km: strictly below 20 µM is fulfilled; on or above 20 µM is not fulfilled.

Look over these answered cases.
>>> label("Cc1cc(C2CC(O)C(COP(=O)(O)OP(=O)(O)OP(=O)(O)O)O2)c(Cl)cc1Cl (stereo not drawn)")
"fulfilled"
>>> label("Cc1cc(C2CC(O)C(COP(=O)(O)OP(=O)(O)OP(=O)(O)O)O2)c(F)cc1F (stereo not drawn) [dFTP, reference compound]")
"not fulfilled"
>>> label("Cc1cc(C2CC(O)C(COP(=O)(O)OP(=O)(O)OP(=O)(O)O)O2)c(I)cc1I (stereo not drawn)")
"fulfilled"
>>> label("Cc1cn([C@H]2C[C@H](O)[C@@H](COP(=O)(O)OP(=O)(O)OP(=O)(O)O)O2)c(=O)[nH]c1=O [dTTP, reference compound]")
"fulfilled"
>>> label("Cc1cccc(C2CC(O)C(COP(=O)(O)OP(=O)(O)OP(=O)(O)O)O2)c1 (stereo not drawn)")
"not fulfilled"

Here's the next entry for you.
Report whether reported Km is lower than 20 µM (strictly) for Cc1cc(C2CC(O)C(COP(=O)(O)OP(=O)(O)OP(=O)(O)O)O2)c(Br)cc1Br (stereo not drawn) not fulfilled

---

Reported Vmax values are given for each entry in this list.
# System: DNA Pol I (Klenow fragment, exo-)
# ASSAY: steady-state kinetics of single nucleotide insertions, incoming nucleotide analogues (dNTP/dXTP)
# Type: biochemical, E. coli
# STATED CONDITIONS: dNTP inserted opposite template base C; 37° C., 10 mM MgCl2, pH 7.5; normalized to lowest enzyme concentration
API: value field is a number in % · min^−1; no unit string.

>>> numeric_result("Cc1cc(C2CC(O)C(COP(=O)(O)OP(=O)(O)OP(=O)(O)O)O2)c(F)cc1F (stereo not drawn) [dFTP, reference compound]")
0.012
>>> numeric_result("Cc1cc(C2CC(O)C(COP(=O)(O)OP(=O)(O)OP(=O)(O)O)O2)c(Br)cc1Br (stereo not drawn) [dBTP]")
0.016
>>> numeric_result("Cc1cn([C@H]2C[C@H](O)[C@@H](COP(=O)(O)OP(=O)(O)OP(=O)(O)O)O2)c(=O)[nH]c1=O [dTTP, reference compound]")
0.067
>>> numeric_result("Cc1cc(C2CC(O)C(COP(=O)(O)OP(=O)(O)OP(=O)(O)O)O2)c(Cl)cc1Cl (stereo not drawn) [dLTP]")
0.050
>>> numeric_result("Cc1cc(C2CC(O)C(COP(=O)(O)OP(=O)(O)OP(=O)(O)O)O2)c(I)cc1I (stereo not drawn) [dITP]")
0.0023

Kindly review the next compound as well.
Request body: readout Vmax, system DNA Pol I (Klenow fragment, exo-), query Cc1cccc(C2CC(O)C(COP(=O)(O)OP(=O)(O)OP(=O)(O)O)O2)c1 (stereo not drawn) [dHTP] . Return the value. 0.0067
